The molecules below each have a reported IC50 tested on Dual specificity protein kinase CLK1 (Homo sapiens, UniProt P49759); the values come from various publications.

Solved entries:
1. CC[C@H](C)Nc1nc(Nc2ccc(C(=O)N3CCOCC3)c3c2OCC3)nc2[nH]cc(C(F)(F)F)c12 :: 301 to 1000 nM
2. C=CCNc1cc(Nc2ccc(C(=O)N3CCC(N4CCOCC4)CC3)c3c2OCC3)nc2[nH]cc(C(F)(F)F)c12 :: < 100 nM
3. COc1cc(S(C)(=O)=O)ccc1Nc1cc(NCCS(C)(=O)=O)c2c(C#N)c[nH]c2n1 :: 301 to 1000 nM
4. CN1Cc2cnc(Nc3ccn(C4CCNCC4)n3)cc2N(C)c2ccccc21 :: > 50000 nM
5. CC(C)Oc1nn(CCO)c2c1/C=C/c1n[nH]c3ccc(cc13)-c1cnn(C)c1O[C@@H](CO)CN(C)C2 :: 0.5 nM
6. CNc1cc(Nc2ccc(S(=O)(=O)N3CCOCC3)cc2OC)nc2[nH]cc(Cl)c12 :: 301 to 1000 nM
7. CCNc1cc(Nc2ccc(C(=O)N3CCOCC3)c3c2OCCO3)nc2[nH]cc(C#N)c12 :: 301 to 1000 nM
8. O=C(c1ccc(Nc2cc(NC3CCCCC3)c3c(Cl)c[nH]c3n2)c2c1OCCO2)N1CCOCC1 :: 301 to 1000 nM

IN: Can you look up the measured IC50 of COCCNc1nc(Nc2ccc(S(=O)(=O)N3CCOCC3)cc2OC)nc2[nH]ccc12 for me?
OUT: 301 to 1000 nM

IN: Moving on to the next molecule: COc1cc(P2(=O)CCN(C3COC3)CC2)ccc1Nc1nc(NC2CCCC2)c2c(C#N)c[nH]c2n1
OUT: 101 to 300 nM

IN: Cool, now COCCNc1nc(Nc2ccc(C(=O)N3CCC(N4CCOCC4)CC3)c3c2OCCO3)nc2[nH]cc(C#N)c12
OUT: < 100 nM

IN: Ok, now CC(C)c1noc2c1/C=C/c1n[nH]c3ccc(cc13)-c1cnn(C)c1O[C@@H](C)CN(C)C2
OUT: 2.75 nM

IN: And the next one, COc1cc(S(=O)(=O)N2CCC(N3CCOCC3)CC2)ccc1Nc1nc(NC2CC2)c2cc[nH]c2n1 ?
OUT: 301 to 1000 nM

IN: Quick one: CC[C@H](C)Nc1nc(Nc2ccc(C(=O)N3CCOCC3)c3c2OCCO3)nc2[nH]cc(C(F)(F)F)c12
OUT: 301 to 1000 nM

IN: Note, next up: CNc1nc(Nc2ccc(C(=O)N3CCC(N4CCOCC4)CC3)c3c2OCCO3)nc2[nH]cc(C(F)(F)F)c12
OUT: < 100 nM

IN: One more molecule: Cc1noc2c1/C=C/c1n[nH]c3ccc(cc13)-c1cnn(C)c1OCCOC2
OUT: 1.35 nM

IN: And CCNc1cc(Nc2ccc(S(C)(=O)=O)cc2OC)nc2[nH]cc(Cl)c12 ?
OUT: 301 to 1000 nM

IN: How about this molecule: COc1cc(S(=O)(=O)N2CCOCC2)ccc1Nc1nc(NC(C)C)c2c(C#N)c[nH]c2n1
OUT: 301 to 1000 nM

====

pIC50: −log10 of the molar value.
Let's look at some pIC50 data for Dual specificity protein kinase CLK1 (Homo sapiens, UniProt P49759) that I collected from the literature.

Observe how each entry below is paired with its result.
1) CNc1cc(Nc2cc(F)c(S(=O)(=O)N3CCC(N4CCOCC4)CC3)cc2OC)nc2[nH]cc(C(F)(F)F)c12 :: 6.00 to 6.52
2) COc1cc(S(=O)(=O)N2CCC(N3CCOCC3)CC2)ccc1Nc1cc(NC2CC2)c2cc[nH]c2n1 :: 6.00 to 6.52
3) CCOc1nn(C)c2c1/C=C/c1n[nH]c3ccc(cc13)-c1cnn(C)c1O[C@@H]1CCCN(C2)C1 :: 9.66

Consider now this further compound.
IN: So what's the measured pIC50 for this one? COc1cc(S(=O)(=O)N2CCC(N3CCOCC3)CC2)ccc1Nc1nc(NC2CC2)c2c(C(F)(F)F)c[nH]c2n1
OUT: 6.52 to 7.00
